Attribution: ChEMBL document CHEMBL4689842

tested on: HEK-293T; test: Multiplex assay against HEK293T; type: toxicity, cell-based; details: human, 12 h, 1 µM, compound concentration 1 uM, replicate 1
Measured Quantity: Population Mitotic Cells (%)

Molecule: CC(C)c1noc(N2CCC(COc3ccc(-c4ccc(S(C)(=O)=O)cc4)nc3)CC2)n1
Observed Value: 63%
--
Molecule: CC(C)NC(=O)N1CC[C@H](NC2=Nc3cc(F)ccc3N(CC(F)F)c3ccc(Cl)cc32)C1
Observed Value: 57%
--
Molecule: O=C(c1cc2c(cc1F)OC(c1ccc(F)cc1)(c1ccc(Cl)cc1Cl)O2)N1CCOCC1 (stereo not drawn)
Observed Value: 54%
--
Molecule: CNC(=O)Nc1ccc2c(c1)[C@@]1(CC2)OC(=O)N(CC(=O)N(Cc2ccc(F)cc2)[C@@H](C)C(F)(F)F)C1=O
Observed Value: 74%
--
Molecule: O=c1cc(N2CCOCC2)oc2c(-c3cccc4c3sc3ccccc34)cccc12
Observed Value: 53%
--
Molecule: COC(=O)C1=C(C)NC(C)=C(C(=O)OCCCN2CCC(c3ccccc3)(c3ccccc3)CC2)[C@H]1c1cccc([N+](=O)[O-])c1
Observed Value: 13%
--
Molecule: C=CC(=O)Nc1cccc(Oc2nc(Nc3ccc(N4CCN(C)CC4)cc3OC)ncc2Cl)c1
Observed Value: 77%
--
Molecule: Cc1ccc2c(c1)c1c(n2CCc2ccc(C)nc2)CCN(C)C1 [LATREPIRDINE]
Observed Value: 34%
--
Molecule: Cc1nc(N2CC[C@H](O)C2)ncc1-c1cc(C(F)(F)F)cc2[nH]ncc12
Observed Value: 79%
--
Molecule: COc1ccccc1CN[C@H]1C2CCN(CC2)[C@H]1C(c1ccccc1)c1ccccc1
Observed Value: 38%
--
Molecule: CC(C)OC(=O)N1CCC(Oc2ncnc3c2cnn3-c2ccc(S(C)(=O)=O)cc2F)CC1
Observed Value: 42%
--
Molecule: CCc1ccc(OCc2ccccc2C(=O)Nc2ccc3nc(C)cc(N)c3c2)cc1.Cl
Observed Value: 15%
--
Molecule: Cl.O=C(O)c1cc(-c2ccc(C3CCNCC3)cc2)c2ccc(-c3ccc(C(F)(F)F)cc3)cc2c1
Observed Value: 56%
--
Molecule: CC(C)(C)NC[C@H](O)COc1nsnc1N1CCOCC1
Observed Value: 52%
--
Molecule: C=CC(=O)Nc1cccc(Sc2nc(Nc3ccc(N4CCN(C)CC4)cc3)ncc2Cl)c1
Observed Value: 66%
--
Molecule: COc1cc(Nc2nccc(-c3cnn4nc(OC)ccc34)n2)cc(C(F)(F)F)c1
Observed Value: 52%
--
Molecule: COc1cc2ncn(-c3cc(OCc4ccccc4C(F)(F)F)c(C(N)=O)s3)c2cc1OC [GW843682X]
Observed Value: 37%
--
Molecule: CC(C)Oc1ccccc1C(=O)Nc1ccccc1C(=O)Nc1cccc(S(=O)(=O)C(F)(F)F)c1
Observed Value: 35%

###

system: Fibroblast; test: Multiplex assay against human fibroblast; assay type: toxicity, cell-based; details: 24 h, 1 µM, compound concentration 1 uM, replicate 1
The reader will find reported Population Mitochondria Different-Phenotype (%) values listed item by item below.
Measured Quantity: Population Mitochondria Different-Phenotype (%)

Compound: COc1cc(Nc2nccc(-c3cnn4nc(OC)ccc34)n2)cc(C(F)(F)F)c1
Observed Value: 10

Compound: CC(C)OC(=O)N1CCC(Oc2ncnc3c2cnn3-c2ccc(S(C)(=O)=O)cc2F)CC1
Observed Value: 4

Compound: COc1ccc(-c2ccc3ncc4c(c3c2)n(-c2ccc(N3CCNCC3)c(C(F)(F)F)c2)c(=O)n4C)cn1.O=C(O)/C=C\C(=O)O
Observed Value: 16

Compound: CCc1nn(CCCN2CCN(c3cccc(Cl)c3)CC2)c(=O)n1CCOc1ccccc1.Cl [NEFAZODONE HYDROCHLORIDE]
Observed Value: 17

Compound: Cc1c[nH]c2nccc(Oc3c(F)cc(Nc4cc(Cl)nc(N)n4)cc3F)c12
Observed Value: 9

Compound: CCCSc1nc(N[C@@H]2C[C@H]2c2ccc(F)c(F)c2)c2nnn([C@@H]3C[C@H](OCCO)[C@@H](O)[C@H]3O)c2n1
Observed Value: 12

Compound: CNC(=O)Nc1ccc2c(c1)[C@@]1(CC2)OC(=O)N(CC(=O)N(Cc2ccc(F)cc2)[C@@H](C)C(F)(F)F)C1=O
Observed Value: 6

Compound: Cl.O=C(O)c1cc(-c2ccc(C3CCNCC3)cc2)c2ccc(-c3ccc(C(F)(F)F)cc3)cc2c1
Observed Value: 7

Compound: O=c1cc(N2CCOCC2)oc2c(-c3cccc4c3sc3ccccc34)cccc12
Observed Value: 2

Compound: CC(C)Oc1ccccc1C(=O)Nc1ccccc1C(=O)Nc1cccc(S(=O)(=O)C(F)(F)F)c1
Observed Value: 22

Compound: Cc1cccc(CN2CCN(C(c3ccccc3)c3ccc(Cl)cc3)CC2)c1.Cl.Cl (centres undefined)
Observed Value: 5

Compound: C=CC(=O)Nc1ccc2[nH]c(=O)n(C3CCN(Cc4ccc(-c5nc6cc[nH]c(=O)c6cc5-c5ccccc5)cc4)CC3)c2c1
Observed Value: 2

Compound: CC1=C(C(=O)Nc2cc3cn[nH]c3cc2F)C(c2ccc(C(F)(F)F)cc2)CC(=O)N1 (centres undefined)
Observed Value: 1

Compound: CC(C)(C)NC[C@H](O)COc1nsnc1N1CCOCC1
Observed Value: 0
